Measured values drawn from patent US20250304677A1 for this set.

SYSTEM TESTED: T1, mouse folate receptor alpha (mFRα), recombinant protein (mouse, UniProt P35846 25-232)
T1 construct: Bought recombinant proteins (e.g. biotinylated, Acro Biosystems FO1-M82E9); also called mFOLR1; Ms FOLR1
T1 sequence (P35846 25-232 limits assumed): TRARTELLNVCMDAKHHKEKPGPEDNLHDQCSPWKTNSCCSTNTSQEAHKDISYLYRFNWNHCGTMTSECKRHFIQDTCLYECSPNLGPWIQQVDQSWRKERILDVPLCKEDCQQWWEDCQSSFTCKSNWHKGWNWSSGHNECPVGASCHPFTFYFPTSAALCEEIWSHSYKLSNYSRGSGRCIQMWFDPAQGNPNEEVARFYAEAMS
EXPERIMENTAL PROTOCOL: BLI tandem binning on mouse FRα; competitor (1st association) 2HFO42
Measured normalized additional binding in 2nd association, listed per entry for reference.
MEASURED METRIC: normalized additional binding in 2nd association

BINDER	VALUE REPORTED
VHH 3MFR60 (family 10) (VHH) VHH: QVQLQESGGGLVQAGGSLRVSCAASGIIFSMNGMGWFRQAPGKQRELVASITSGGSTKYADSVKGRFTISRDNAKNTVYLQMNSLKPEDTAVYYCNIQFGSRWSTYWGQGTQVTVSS	34%
VHH 2MFR32 (VHH, also called 2MF832) VHH: QVQLQESGGGLVQAGGSLRVSCAASGFPFSTVYMSWVRQAPGKGLEWVSGINSNGGVIDYADSVKGRFTISRDNANNTLYLQLNSLKPEDTALYFCAKGRAFVATMPSSLRGQGTQVTVSS	100%
VHH 2HFO42 (family 3) (VHH, also called 2HF042; Nb42) VHH: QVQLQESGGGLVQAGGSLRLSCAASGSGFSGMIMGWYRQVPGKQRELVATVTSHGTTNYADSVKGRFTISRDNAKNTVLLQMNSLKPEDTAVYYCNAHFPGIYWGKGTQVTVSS	0%
VHH 2HFO19 (family 1) (VHH, also called Nb19) VHH: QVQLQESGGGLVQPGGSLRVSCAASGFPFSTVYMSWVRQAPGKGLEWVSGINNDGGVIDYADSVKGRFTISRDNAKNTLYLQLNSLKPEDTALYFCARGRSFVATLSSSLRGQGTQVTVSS	12%
